# ASSAY SUMMARY: in vivo
# ASSAY CONTEXT: male, SD, rat, in vivo, po
Please respond with reported AUC(0-t) for every item in the list.
Provide only the numeric value, understood in ng·h/mL.

input: Entry O=C(O)Cc1ccccc1Nc1c(Cl)cccc1Cl : reported AUC(0-t) = ?
output: 2270

input: Here is the next compound: CCOc1ccc(NC(C)=O)cc1
output: 342

input: Here is the next compound: Cc1ncc2n1-c1ccc(Cl)cc1C(c1ccccc1F)=NC2
output: 2300

input: Here is the next compound: CC(NC(C)(C)C)C(=O)c1cccc(Cl)c1 (stereo not shown)
output: 4950

* * *

Please respond with reported Residual activity (%) CYP1A2 for every item in the list.
# TARGET OR SYSTEM: CYP1A2 (Homo sapiens, UniProt P05177)
# Sequence (P05177 whole entry): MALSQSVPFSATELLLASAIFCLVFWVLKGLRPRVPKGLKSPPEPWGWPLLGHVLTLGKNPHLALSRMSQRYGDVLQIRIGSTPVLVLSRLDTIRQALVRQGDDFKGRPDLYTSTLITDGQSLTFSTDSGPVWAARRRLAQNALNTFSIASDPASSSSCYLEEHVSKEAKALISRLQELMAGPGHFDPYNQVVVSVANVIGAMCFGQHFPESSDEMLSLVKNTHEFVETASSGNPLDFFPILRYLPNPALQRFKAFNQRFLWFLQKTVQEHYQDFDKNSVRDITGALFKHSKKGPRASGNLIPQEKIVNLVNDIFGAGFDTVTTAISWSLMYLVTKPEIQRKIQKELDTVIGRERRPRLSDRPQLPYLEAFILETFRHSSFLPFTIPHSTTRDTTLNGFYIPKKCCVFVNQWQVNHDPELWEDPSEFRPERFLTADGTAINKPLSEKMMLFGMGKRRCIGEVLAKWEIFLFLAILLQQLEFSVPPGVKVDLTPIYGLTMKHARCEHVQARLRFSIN
# ASSAY SUMMARY: CYP1A2 inhibition, probe/drug metabolism in human liver microsomes (LC-MS/MS)
# ASSAY CONTEXT: HLM 0.5 mg/mL, phenacetin 40 μM, 30 min
Provide only the numeric value, understood in %.

input: Entry CC(=O)OC1C(=O)C2=C(C(=O)CC3C(C)(C)C(=O)CCC23C)C2(C)C(=O)CC(C(C)CC(=O)CC(C)C(=O)O)C12C (stereo not shown) [Compound 50] : reported Residual activity (%) CYP1A2 = ?
output: 62.18

input: Here is the next compound: CC(CC(=O)CC(C)C1CC(=O)C2(C)C3=C(C(=O)CC12C)C1(C)CCC(O)C(C)(C)C1CC3=O)C(=O)O (stereo not shown) [Compound 55]
output: 71.10

input: Here is the next compound: CC(=O)OC1C(=O)C2=C(C(=O)CC3C(C)(C)C(=O)CCC23C)C2(C)C(=O)CC(C(C)CC(=O)CC(C)C(=O)O)C12C (stereo not shown) [Compound 9]
output: 89.44

input: Here is the next compound: CC(CC(=O)CC(C)C1CC(=O)C2(C)C3=C(C(=O)CC12C)C1(C)CCC(O)C(C)(C)C1CC3=O)C(=O)O (stereo not shown) [Compound 54]
output: 47.09
